Values compiled from patent US9765105B2.

# Test system: Pasteurella multocida CVCC399
# ASSAY PROCEDURE: in vitro susceptibility, MIC by mini broth dilution
# Format: cell-based
# TEST PARAMETERS: strain CVCC399
I'd appreciate it if you could supply MIC values, Pasteurella multocida CVCC399 values for the items below.
Quick note: give the figure in ug/mi, leave out the unit.

So what MIC values, Pasteurella multocida CVCC399 did `CCCN1C[C@H](C)[C@@H](O)[C@](C)(O)[C@@H](CC)OC(=O)[C@H](C)[C@@H](O[C@H]2C[C@@](C)(OC)[C@](O)(CNCc3ccc(F)cc3F)[C@H](C)O2)[C@H](C)[C@@H](O[C@@H]2O[C@H](C)C[C@H](N(C)C)[C@H]2O)[C@](C)(O)C[C@H]1C` get with Pasteurella multocida CVCC399? 0.5

So what MIC values, Pasteurella multocida CVCC399 did `CCCN1C[C@H](C)[C@@H](O)[C@](C)(O)[C@@H](CC)OC(=O)[C@H](C)[C@@H](O[C@H]2C[C@@](C)(OC)[C@](O)(CNC(C)C)[C@H](C)O2)[C@H](C)[C@@H](O[C@@H]2O[C@H](C)C[C@H](N(C)C)[C@H]2O)[C@](C)(O)C[C@H]1C` get with Pasteurella multocida CVCC399? 0.5

So what MIC values, Pasteurella multocida CVCC399 did `CC[C@H]1OC(=O)[C@H](C)[C@@H](O[C@H]2C[C@@](C)(OC)[C@](O)(CNc3ccc(Cl)nn3)[C@H](C)O2)[C@H](C)[C@@H](O[C@@H]2O[C@H](C)C[C@H](N(C)C)[C@H]2O)[C@](C)(O)C[C@@H](C)NC[C@H](C)[C@@H](O)[C@]1(C)O` get with Pasteurella multocida CVCC399? 1

So what MIC values, Pasteurella multocida CVCC399 did `CCCN1C[C@H](C)[C@@H](O)[C@](C)(O)[C@@H](CC)OC(=O)[C@H](C)[C@@H](O[C@H]2C[C@@](C)(OC)[C@](O)(CNc3cc(C(F)(F)F)cc(C(F)(F)F)c3)[C@H](C)O2)[C@H](C)[C@@H](O[C@@H]2O[C@H](C)C[C@H](N(C)C)[C@H]2O)[C@](C)(O)C[C@H]1C` get with Pasteurella multocida CVCC399? 8

So what MIC values, Pasteurella multocida CVCC399 did `CC[C@H]1OC(=O)[C@H](C)[C@@H](O[C@H]2C[C@@](C)(OC)[C@](O)(CNCc3ccccc3OC)[C@H](C)O2)[C@H](C)[C@@H](O[C@@H]2O[C@H](C)C[C@H](N(C)C)[C@H]2O)[C@](C)(O)C[C@@H](C)NC[C@H](C)[C@@H](O)[C@]1(C)O` get with Pasteurella multocida CVCC399? 0.5

So what MIC values, Pasteurella multocida CVCC399 did `CC[C@H]1OC(=O)[C@H](C)[C@@H](O[C@H]2C[C@@](C)(OC)[C@](O)(CNc3cc(Cl)ccc3C)[C@H](C)O2)[C@H](C)[C@@H](O[C@@H]2O[C@H](C)C[C@H](N(C)C)[C@H]2O)[C@](C)(O)C[C@@H](C)NC[C@H](C)[C@@H](O)[C@]1(C)O` get with Pasteurella multocida CVCC399? 2

So what MIC values, Pasteurella multocida CVCC399 did `CCCN1C[C@H](C)[C@@H](O)[C@](C)(O)[C@@H](CC)OC(=O)[C@H](C)[C@@H](O[C@H]2C[C@@](C)(OC)[C@](O)(CNc3ccc(Cl)nc3)[C@H](C)O2)[C@H](C)[C@@H](O[C@@H]2O[C@H](C)C[C@H](N(C)C)[C@H]2O)[C@](C)(O)C[C@H]1C` get with Pasteurella multocida CVCC399? 4

So what MIC values, Pasteurella multocida CVCC399 did `CC[C@H]1OC(=O)[C@H](C)[C@@H](O[C@H]2C[C@@](C)(OC)[C@](O)(CNCCCC(OC)OC)[C@H](C)O2)[C@H](C)[C@@H](O[C@@H]2O[C@H](C)C[C@H](N(C)C)[C@H]2O)[C@](C)(O)C[C@@H](C)NC[C@H](C)[C@@H](O)[C@]1(C)O` get with Pasteurella multocida CVCC399? 1

So what MIC values, Pasteurella multocida CVCC399 did `CC[C@H]1OC(=O)[C@H](C)[C@@H](O[C@H]2C[C@@](C)(OC)[C@](O)(CNC(=O)C(F)(F)F)[C@H](C)O2)[C@H](C)[C@@H](O[C@@H]2O[C@H](C)C[C@H](N(C)C)[C@H]2O)[C@](C)(O)C[C@@H](C)NC[C@H](C)[C@@H](O)[C@]1(C)O` get with Pasteurella multocida CVCC399? 1

So what MIC values, Pasteurella multocida CVCC399 did CCCN1C[C@H](C)[C@@H](O)[C@](C)(O)[C@@H](CC)OC(=O)[C@H](C)[C@@H](O[C@H]2C[C@@](C)(OC)[C@](O)(CNCc3cccc(OC)c3)[C@H](C)O2)[C@H](C)[C@@H](O[C@@H]2O[C@H](C)C[C@H](N(C)C)[C@H]2O)[C@](C)(O)C[C@H]1C [syzx-135] get with Pasteurella multocida CVCC399? 2

So what MIC values, Pasteurella multocida CVCC399 did `CCCN1C[C@H](C)[C@@H](O)[C@](C)(O)[C@@H](CC)OC(=O)[C@H](C)[C@@H](O[C@H]2C[C@@](C)(OC)[C@](O)(CNCCCOCC)[C@H](C)O2)[C@H](C)[C@@H](O[C@@H]2O[C@H](C)C[C@H](N(C)C)[C@H]2O)[C@](C)(O)C[C@H]1C` get with Pasteurella multocida CVCC399? 1

So what MIC values, Pasteurella multocida CVCC399 did `CCCN1C[C@H](C)[C@@H](O)[C@](C)(O)[C@@H](CC)OC(=O)[C@H](C)[C@@H](O[C@H]2C[C@@](C)(OC)[C@](O)(CN3CCOCC3)[C@H](C)O2)[C@H](C)[C@@H](O[C@@H]2O[C@H](C)C[C@H](N(C)C)[C@H]2O)[C@](C)(O)C[C@H]1C` get with Pasteurella multocida CVCC399? 4

So what MIC values, Pasteurella multocida CVCC399 did `CC[C@H]1OC(=O)[C@H](C)[C@@H](O[C@H]2C[C@@](C)(OC)[C@](O)(CNc3ccc(Cl)cc3C)[C@H](C)O2)[C@H](C)[C@@H](O[C@@H]2O[C@H](C)C[C@H](N(C)C)[C@H]2O)[C@](C)(O)C[C@@H](C)NC[C@H](C)[C@@H](O)[C@]1(C)O` get with Pasteurella multocida CVCC399? 4
